Parameter kon: see the listing below.
MEASURED ON: T1, mfNPR1-mFc:hBNP complex (monkey; human, UniProt P16860 103-134)
T1 construct: Receptor-Fc pre-complexed with 10-fold hBNP
TEST SUMMARY: SPR Biacore, mAb captured by anti-human Fc, 37C
Method: Equilibrium dissociation constant (KD) for different NPR1 reagents binding to purified anti-NPR1 monoclonal antibodies (mAbs) were determined using a real-time surface plasmon resonance based Biacore 4000 biosensor. All binding studies were performed in 10 mM HEPES, 150 mM NaCl, 3 mM EDTA, and 0.05% v/v Surfactant Tween-20, pH 7.4 (HBS-ET) running buffer at 25° C. and 37° C. […]
All answers are understood in M⁻¹ s⁻¹, so give the number only.

Examples with their reported kon follow.
binder="mAb25497 (antibody, human IgG4, V domains shown) VH: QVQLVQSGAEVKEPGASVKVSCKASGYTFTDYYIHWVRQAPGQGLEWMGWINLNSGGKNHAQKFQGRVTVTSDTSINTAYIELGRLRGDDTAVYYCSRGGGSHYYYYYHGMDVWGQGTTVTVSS VL: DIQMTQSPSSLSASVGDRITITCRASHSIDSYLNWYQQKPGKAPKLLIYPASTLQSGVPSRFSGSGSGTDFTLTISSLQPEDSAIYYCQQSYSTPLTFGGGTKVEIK" unit_abbrev="M⁻¹ s⁻¹" assay_value=57400
binder="mAb22035 (antibody, human IgG4, V domains shown) VH: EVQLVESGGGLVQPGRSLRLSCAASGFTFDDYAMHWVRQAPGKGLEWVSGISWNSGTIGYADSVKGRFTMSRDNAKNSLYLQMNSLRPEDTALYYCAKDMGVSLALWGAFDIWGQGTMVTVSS VL: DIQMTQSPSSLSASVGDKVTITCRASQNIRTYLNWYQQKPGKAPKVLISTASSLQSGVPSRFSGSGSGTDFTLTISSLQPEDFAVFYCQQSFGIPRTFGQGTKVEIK" unit_abbrev="M⁻¹ s⁻¹" assay_value=258000

Next, consider the following binder.
Quick one: kon for mAb25508 (antibody, human IgG4, V domains shown) VH: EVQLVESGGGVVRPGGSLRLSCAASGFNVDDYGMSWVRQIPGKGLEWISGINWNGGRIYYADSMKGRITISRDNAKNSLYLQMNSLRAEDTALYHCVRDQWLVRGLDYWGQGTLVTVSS VL: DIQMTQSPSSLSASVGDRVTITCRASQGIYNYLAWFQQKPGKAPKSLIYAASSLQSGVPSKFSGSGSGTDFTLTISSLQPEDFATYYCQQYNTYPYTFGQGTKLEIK ? 423000
